I'd be grateful if you could share measured koff for these entries.
# target or system: T1, huIgG1 monoFc tagged GALV gp70 protein (residues 42-474) (Gibbon ape leukemia virus, UniProt P21415 42-474)
# T1 construct: also called gp70 (42-474)
# T1 sequence: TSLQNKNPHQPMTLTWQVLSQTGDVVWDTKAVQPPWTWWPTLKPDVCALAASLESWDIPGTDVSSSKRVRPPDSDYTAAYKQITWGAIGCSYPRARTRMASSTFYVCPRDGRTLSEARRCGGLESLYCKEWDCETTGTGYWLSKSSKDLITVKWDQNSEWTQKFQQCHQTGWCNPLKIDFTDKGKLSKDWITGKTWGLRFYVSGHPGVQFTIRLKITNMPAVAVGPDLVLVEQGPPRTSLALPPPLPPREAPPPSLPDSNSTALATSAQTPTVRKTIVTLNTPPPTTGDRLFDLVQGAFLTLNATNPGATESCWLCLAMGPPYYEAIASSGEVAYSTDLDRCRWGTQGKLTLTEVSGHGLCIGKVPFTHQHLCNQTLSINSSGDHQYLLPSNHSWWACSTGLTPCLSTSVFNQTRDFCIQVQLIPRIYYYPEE
# experiment notes: BLI Octet Red96; antibody on AMC biosensor, 100 nM monoFc-gp70(42-474) analyte

Short answer for 40A6 (antibody, V domains shown, Anti-GALV gp70; One id for the hybridoma supernatant and the recombinant murine IgG2a antibody; also called 40A6-HC / 40A6-LC) VH: EVQLVESGGGLVKPGGSLKLSCAASGFTFSSYVLSWVRQIPEKRLEWVATINSGGSYTYYPDSVKGRFTISRDNAKNTLYLQMSSLRSEDTAIYYCARHLIYYDYDGYYFDTWGQGTSLTVSS VL: DVVMTQTPLSLPVSLGDQASISCRSSQTLVHSNGNIYLHWYLQKPGQSPKLLIYKVSNRFSGVPDRFSGSGSGTDFTLKISRVETEDLGIYFCSQTTHVPPTFGGGTKLEIK : koff was 6.72e-07 s⁻¹

Short answer for 40A3 (antibody, V domains shown, Anti-GALV gp70; One id for the hybridoma supernatant and the recombinant murine IgG2a antibody; also called 40A3-HC / 36H3-LC) VH: DVQLQESGPDLVKPSQSLSLTCTVTDFSITSDYTWHWVRQFPGNKLEWMAYIHYSGGTNYNPSLRSRISITRDTSKNQFFLHMNSVTTEDTATYYCLYYGSRDAVDYWGQGTSVTVSS VL: QIVLTQSPAIMSASPGEKVTMTCSTSSSVTYMHWYQQKSGTSPKRWIYDTSKLASGVPARFSGSGSGTSYSLTISSMEAEDAATYYCQQWSSSPYTFGGGTKLEIK : koff was 6e-07 s⁻¹

Short answer for 35C11 (antibody, V domains shown, also called 35C11-HC / 35C11-LC) VH: QVQLQQSGPELVRPGVSVKISCKVSGYTFTDYTMHWVKQSHAKSLEWIGLISTYSGKTNYNQKLKDKATMTVDKSSSTAYMELARLTSEDSAIFYCARGGLRDAMDYWGQGTSVTVSS VL: DIVLTQSPASLAVSLGQGATISCRASESVDSYGNSFMHWYQQKPGQPPKLLIYRASNLESGIPARFSGSGSGTDFTLTINPVEADDVATYYCLQSNEDPRTFGGGTKLEIK : koff was 6.29e-07 s⁻¹
